biological target: UniProt P48736; assay: PI3Kγ inhibitory activity, PI3-kinase HTRF assay (Millipore); format: biochemical; conditions: 0.5 h; compound 50 μM; read-out: Inhibition ratio % (50 μM)
quantity.measured: inhibition at 50 µM

INSERT INTO results (molecule, quantity_measured, value_observed) VALUES
  ('CNC(=O)Nc1cn2nc(-c3ccoc3)ccc2n1 [Compound I-76]', 'inhibition at 50 µM', '72%'),
  ('COc1cccc(-c2ccc3nc(NC(=O)NCC4COCCO4)cn3n2)c1 (centres unmarked) [Compound I-258]', 'inhibition at 50 µM', '76%'),
  ('COCCNC(=O)Nc1cn2nc(-c3cccc(OC)c3)ccc2n1 [Compound I-245]', 'inhibition at 50 µM', '76%'),
  ('CNC(=O)Nc1cn2nc(-c3cccc(C(=O)NCC(C)C)c3)ccc2n1 [Compound I-140]', 'inhibition at 50 µM', '60%'),
  ('COc1cccc(-c2ccc3nc(NC(=O)NCCC(=O)O)cn3n2)c1 [Compound I-260]', 'inhibition at 50 µM', '73%');

----------
target: PI-3 kinase γ (Homo sapiens, UniProt P48736); experiment: PI3Kγ inhibitory activity, PI3-kinase HTRF assay (Millipore); assay type: biochemical; conditions: 0.5 h; compound 50 μM; read-out: Inhibition ratio % (50 μM)
Sequence (P48736 whole entry): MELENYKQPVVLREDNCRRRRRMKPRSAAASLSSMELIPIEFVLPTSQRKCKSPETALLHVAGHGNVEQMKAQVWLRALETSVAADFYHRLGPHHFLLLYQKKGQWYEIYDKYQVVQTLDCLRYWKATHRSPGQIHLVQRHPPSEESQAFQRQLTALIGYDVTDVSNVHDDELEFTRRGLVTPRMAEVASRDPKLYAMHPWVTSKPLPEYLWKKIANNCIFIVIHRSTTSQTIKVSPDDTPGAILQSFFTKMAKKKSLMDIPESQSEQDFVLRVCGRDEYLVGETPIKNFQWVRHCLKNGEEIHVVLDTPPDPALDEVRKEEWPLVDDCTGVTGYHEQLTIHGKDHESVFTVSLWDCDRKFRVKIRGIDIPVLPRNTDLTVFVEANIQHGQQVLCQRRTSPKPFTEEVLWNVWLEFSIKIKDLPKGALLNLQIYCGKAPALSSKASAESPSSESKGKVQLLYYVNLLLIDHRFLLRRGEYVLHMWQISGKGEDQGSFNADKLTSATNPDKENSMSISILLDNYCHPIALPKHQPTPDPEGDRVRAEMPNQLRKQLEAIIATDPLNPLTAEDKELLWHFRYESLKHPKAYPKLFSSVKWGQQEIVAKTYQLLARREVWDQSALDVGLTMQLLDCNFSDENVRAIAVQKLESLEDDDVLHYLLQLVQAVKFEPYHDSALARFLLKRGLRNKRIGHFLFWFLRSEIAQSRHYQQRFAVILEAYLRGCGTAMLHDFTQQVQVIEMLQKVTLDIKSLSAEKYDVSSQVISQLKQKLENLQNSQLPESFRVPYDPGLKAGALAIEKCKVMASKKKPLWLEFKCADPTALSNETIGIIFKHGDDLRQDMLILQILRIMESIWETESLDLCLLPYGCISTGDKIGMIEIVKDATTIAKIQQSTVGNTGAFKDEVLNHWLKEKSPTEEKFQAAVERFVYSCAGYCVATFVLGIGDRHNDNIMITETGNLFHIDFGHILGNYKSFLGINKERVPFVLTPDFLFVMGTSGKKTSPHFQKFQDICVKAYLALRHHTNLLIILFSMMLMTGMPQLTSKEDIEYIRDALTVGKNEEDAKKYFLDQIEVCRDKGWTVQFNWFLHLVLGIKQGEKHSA
quantity.measured: inhibition at 50 µM

INSERT INTO measurements (compound, value_observed) VALUES
  ('COc1cccc(-c2ccc3nc(NC(=O)Nc4ccsc4)cn3n2)c1 [Compound I-111]', '55%'),
  ('CNC(=O)Nc1cn2nc(C(=O)Nc3ccc4[nH]ccc4c3)ccc2n1 [Compound I-45]', '74%'),
  ('CNC(=O)Nc1cn2nc(-c3cccc(C(=O)N4CCOCC4)c3)ccc2n1 [Compound I-138]', '75%'),
  ('COc1cccc(-c2ccc3nc(NC(=O)Nc4cccs4)cn3n2)c1 [Compound I-108]', '89%'),
  ('CNC(=O)Nc1cn2nc(-c3cccc(C(F)(F)F)c3)ccc2n1 [Compound I-154]', '54%'),
  ('CNC(=O)Nc1cn2nc(-c3ccc(C#N)cc3)ccc2n1 [Compound I-71]', '69%'),
  ('COc1cccc(-c2ccc3nc(NC(=O)c4ccccc4Cl)cn3n2)c1 [Compound I-163]', '58%'),
  ('COc1cncc(-c2ccc3nc(NC(=O)NCC(=O)O)cn3n2)c1 [Compound I-224]', '89%'),
  ('CNC(=O)Nc1cn2nc(Nc3cccc(OC)c3)ccc2n1 [Compound I-39]', '69%');

----------
pIC50: −log10 of the molar value.
Assay read-out pIC50; system under study: CYP3A4 (Homo sapiens, UniProt P08684).
Sequence (P08684 whole entry): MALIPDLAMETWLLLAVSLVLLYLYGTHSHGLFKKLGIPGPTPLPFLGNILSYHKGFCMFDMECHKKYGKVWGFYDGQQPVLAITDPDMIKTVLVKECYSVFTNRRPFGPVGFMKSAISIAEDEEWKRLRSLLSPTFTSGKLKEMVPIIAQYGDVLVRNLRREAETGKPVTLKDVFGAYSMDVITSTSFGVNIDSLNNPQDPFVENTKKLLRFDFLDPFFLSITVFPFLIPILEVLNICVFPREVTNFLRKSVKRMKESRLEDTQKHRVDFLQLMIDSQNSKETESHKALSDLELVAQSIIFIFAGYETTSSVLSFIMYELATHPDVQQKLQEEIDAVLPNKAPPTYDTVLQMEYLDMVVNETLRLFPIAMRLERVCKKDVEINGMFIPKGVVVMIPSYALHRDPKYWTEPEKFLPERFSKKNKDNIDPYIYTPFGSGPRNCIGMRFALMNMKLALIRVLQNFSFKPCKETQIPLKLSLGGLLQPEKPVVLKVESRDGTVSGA
quantity.measured: pIC50

INSERT INTO assay_data (compound, value_observed) VALUES
  ('COc1cccc(-c2ccc3nc(NC(=O)NCc4cc(=O)[nH]o4)cn3n2)c1 [Compound I-267]', '< 4.70'),
  ('COc1cncc(-c2ccc3nc(NC(=O)NCC(=O)O)cn3n2)c1 [Compound I-224]', '< 4.70');

----------
biological target: PI-3 kinase γ (Homo sapiens); assay: PI3Kγ inhibitory activity, PI3-kinase HTRF assay (Millipore); format: biochemical; settings: 0.5 h; compound 50 μM; read-out: Inhibition ratio % (50 μM)
quantity.measured: inhibition at 50 µM (%)

INSERT INTO measurements (molecule, value_observed) VALUES
  ('COc1cccc(-c2ccc3nc(NC(=O)NCCc4ccccc4)cn3n2)c1 [Compound I-107]', 74),
  ('CNC(=O)Nc1cn2nc(C(=O)Nc3ccccc3)ccc2n1 [Compound I-43]', 79),
  ('COc1cccc(-c2ccc3nc(NC(=O)NCc4ccco4)cn3n2)c1 [Compound I-234]', 71),
  ('CNC(=O)Nc1cn2nc(-c3cccc(C)c3)ccc2n1 [Compound I-65]', 79),
  ('CNC(=O)Nc1cn2nc(-c3cccc(C(C)=O)c3)ccc2n1 [Compound I-55]', 85),
  ('COc1cccc(-c2ccc3nc(NC(=O)NC(C)C)cn3n2)c1 [Compound I-113]', 86),
  ('CNC(=O)Nc1cn2nc(C(=O)Nc3ccc(C(=O)O)cc3)ccc2n1 [Compound I-52]', 80),
  ('CNC(=O)Nc1cn2nc(C(=O)Nc3ccc(O)cc3)ccc2n1 [Compound I-41]', 83),
  ('COc1cccc(-c2ccc3nc(NC(=O)C4CCOCC4)cn3n2)c1 [Compound I-194]', 84),
  ('COC(=O)c1cccc(Nc2cn3nc(-c4cccc(OC)c4)ccc3n2)c1 [Compound I-285]', 96),
  ('CNC(=O)Nc1cn2nc(-c3ccc(OC)cc3)ccc2n1 [Compound I-63]', 91),
  ('COc1cccc(-c2ccc3nc(NC(=O)Nc4ccccc4)cn3n2)c1 [Compound I-118]', 64),
  ('COc1cccc(-c2ccc3nc(NC(=O)NCCC(=O)N4CCOCC4)cn3n2)c1 [Compound I-268]', 62),
  ('CNC(=O)Nc1cn2nc(-c3cccc(C(N)=O)c3)ccc2n1 [Compound I-29]', 84),
  ('CNC(=O)Nc1cn2nc(C(=O)N[C@@H](C)C(N)=O)ccc2n1 [Compound I-121]', 71),
  ('CNC(=O)Nc1cn2nc(Cl)ccc2n1 [Compound I-1]', 72),
  ('COC[C@H]1CCCN1C(=O)Nc1cn2nc(-c3cccc(OC)c3)ccc2n1 [Compound I-261]', 59),
  ('COc1cccc(-c2ccc3nc(NC(=O)NCc4ccoc4)cn3n2)c1 [Compound I-254]', 77),
  ('CNC(=O)Nc1cn2nc(NC(=O)C3CCCC3)ccc2n1 [Compound I-4]', 57),
  ('CNC(=O)Nc1cn2nc(-c3cccc(SC)c3)ccc2n1 [Compound I-135]', 80),
  ('CNC(=O)Nc1cn2nc(-c3cccc(N)c3)ccc2n1 [Compound I-57]', 84),
  ('COc1cccc(-c2ccc3nc(NC(=O)CC(C)CC(C)(C)C)cn3n2)c1 (stereo not shown) [Compound I-164]', 89),
  ('COc1cccc(-c2ccc3nc(Nc4ccccc4)cn3n2)c1 [Compound I-27]', 69),
  ('COc1cccc(-c2ccc3nc(NC(=O)N4CCC[C@H]4CO)cn3n2)c1 [Compound I-240]', 73),
  ('CNC(=O)Nc1cn2nc(COc3cccc(C(=O)OC)c3)ccc2n1 [Compound I-217]', 62),
  ('COC(=O)C[C@H](C)CC(=O)Nc1cn2nc(-c3cccc(OC)c3)ccc2n1 [Compound I-171]', 71),
  ('COc1cccc(-c2ccc3nc(NC(=O)CC4CC4)cn3n2)c1 [Compound I-188]', 65),
  ('COc1cccc(-c2ccc3nc(Nc4ccc(CO)cn4)cn3n2)c1 [Compound I-289]', 127),
  ('CCOC(=O)CCCNC(=O)Nc1cn2nc(-c3cccc(OC)c3)ccc2n1 [Compound I-257]', 83),
  ('COc1cccc(-c2ccc3nc(NC(=O)CCCN4CCCC4=O)cn3n2)c1 [Compound I-209]', 81),
  ('COc1cccc(-c2ccc3nc(NC(=O)NCCNC(=O)OC(C)(C)C)cn3n2)c1 [Compound I-263]', 71),
  ('CNC(=O)Nc1cn2nc(/C=C/c3ccc(OC)cc3)ccc2n1 [Compound I-149]', 53),
  ('CNC(=O)Nc1cn2nc(-c3cccc(OC)n3)ccc2n1 [Compound I-151]', 63),
  ('CNC(=O)Nc1cn2nc(C(=O)NCCOC)ccc2n1 [Compound I-49]', 64),
  ('COc1cccc(-c2ccc3nc(NC(=O)Cc4ccccc4OC)cn3n2)c1 [Compound I-174]', 78),
  ('CCOC(=O)c1ccc2nc(NC(=O)NC)cn2n1 [Compound I-13]', 87),
  ('COc1cccc(-c2ccc3nc(NC(=O)CCCn4cncn4)cn3n2)c1 [Compound I-210]', 85);

Value source: patent US20110105457A1
